biological target: Sphingosine 1-phosphate receptor 1 (Homo sapiens); test: activates the human S1P1 receptor (AID 1044); details: S1P1 agonist cell-based reporter assay; at 4.5 µM; stronger effect = higher value
About 240 (1.5%) of roughly 16,000 compounds were called active. Many of the other results were omitted from the sample, so actives are more common in it than they were.
RESULT TYPE: activation (%)
Return type: number; implicit unit %.

A selection of reference data follows.
Field: activation (Sphingosine 1-phosphate receptor 1 (Homo sapiens)). Entry: COC(=O)c1cc(S(=O)(=O)NCc2csc(-c3cccs3)n2)oc1C 4.78

Field: activation (Sphingosine 1-phosphate receptor 1 (Homo sapiens)). Entry: COCn1nnc2ccccc21 1.03

Field: activation (Sphingosine 1-phosphate receptor 1 (Homo sapiens)). Entry: NC(N)=N/C(N)=N/c1nnc(C(F)(F)F)s1 -5

Field: activation (Sphingosine 1-phosphate receptor 1 (Homo sapiens)). Entry: CC(C)(C)C(=O)Nc1c(Br)c(C2CC2)nn1-c1ccccc1 4.11

Field: activation (Sphingosine 1-phosphate receptor 1 (Homo sapiens)). Entry: COC(=O)C(C#N)c1ccc(C(F)(F)F)cc1[N+](=O)[O-] (centres undefined) 14.5

Field: activation (Sphingosine 1-phosphate receptor 1 (Homo sapiens)). Entry: CC(C)S(=O)(=O)c1cscc1N/C=C(/C#N)C(=O)c1cccs1 21.3

***
Field: activation (Sphingosine 1-phosphate receptor 1 (Homo sapiens)). Entry: NNC(=O)c1cc2ccccc2s1 8.06

Field: activation (Sphingosine 1-phosphate receptor 1 (Homo sapiens)). Entry: O=C1CSC(=S)N1c1ccc(N2CCCCCC2)c(N2C(=O)CSC2=S)c1 0.84

Field: activation (Sphingosine 1-phosphate receptor 1 (Homo sapiens)). Entry: N#Cc1ccc(N2CCSCC2)cc1[N+](=O)[O-] -27.1

Field: activation (Sphingosine 1-phosphate receptor 1 (Homo sapiens)). Entry: O=[N+]([O-])c1ccc(-c2nnnn2Cc2c(Cl)cccc2Cl)cc1 38.8

Field: activation (Sphingosine 1-phosphate receptor 1 (Homo sapiens)). Entry: CCOC(=O)c1c(N/N=C\c2ccccc2O)n[nH]c1C -16.7

Field: activation (Sphingosine 1-phosphate receptor 1 (Homo sapiens)). Entry: COc1ccc(C2CC(c3cccs3)=Nc3ccccc3S2)c(Cl)c1OC (centres undefined) 1.73

Field: activation (Sphingosine 1-phosphate receptor 1 (Homo sapiens)). Entry: Cc1nc(C(F)(F)F)ccc1C(=O)NCCNc1ncccc1C(F)(F)F 3.52

Field: activation (Sphingosine 1-phosphate receptor 1 (Homo sapiens)). Entry: COC(=O)c1cc(C(N)=O)c(SC)s1 -10.8

====

biological target: Sphingosine 1-phosphate receptor 1 (Homo sapiens) (UniProt P21453); assay: activates the human S1P1 receptor (AID 1044); conditions: S1P1 agonist cell-based reporter assay; at 4.5 µM; stronger effect = higher value
Sequence (P21453 whole entry, looked up): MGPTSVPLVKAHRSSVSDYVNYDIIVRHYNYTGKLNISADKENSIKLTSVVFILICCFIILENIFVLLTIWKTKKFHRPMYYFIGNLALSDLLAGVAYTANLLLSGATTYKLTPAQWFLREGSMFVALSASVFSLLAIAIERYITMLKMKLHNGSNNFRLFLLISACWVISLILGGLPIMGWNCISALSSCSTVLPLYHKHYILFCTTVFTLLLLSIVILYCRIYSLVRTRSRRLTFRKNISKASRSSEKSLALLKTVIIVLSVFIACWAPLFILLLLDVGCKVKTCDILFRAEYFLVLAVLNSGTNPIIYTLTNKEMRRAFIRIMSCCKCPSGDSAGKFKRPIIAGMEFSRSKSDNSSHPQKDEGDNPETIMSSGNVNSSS
The campaign covered roughly 16,000 compounds. About 240 (1.5%) were called active. For the sample, actives were picked, then their nearest neighbours and some compounds at random.
RESULT TYPE: activation (%)
Return type: number; implicit unit %.

For the compound O=C1c2ccccc2C(=O)N1CCCN1CCN(Cc2c(F)cccc2Cl)CC1 , what activation is on record? -0.27

***
For the compound Cc1cc(CNCC(O)C(F)(F)F)no1 (centres undefined) , what activation is on record? -6.99

For the compound O=C1c2ccccc2O[C@@H](c2ccccc2)[C@@H]1NC1CCCCC1 , what activation is on record? 75.6

For the compound O=C(Nc1ccccc1C(=O)NCc1c(F)cccc1Cl)c1ccccc1Cl , what activation is on record? 15.3

meta.source: PubChem BioAssay AID1044
